So I've got a bunch of compounds here, and I need their IC50 values.
experimental.system: VEGFR2 (Homo sapiens (Human), UniProt P35968)
Sequence (P35968 20-1356, species assumed): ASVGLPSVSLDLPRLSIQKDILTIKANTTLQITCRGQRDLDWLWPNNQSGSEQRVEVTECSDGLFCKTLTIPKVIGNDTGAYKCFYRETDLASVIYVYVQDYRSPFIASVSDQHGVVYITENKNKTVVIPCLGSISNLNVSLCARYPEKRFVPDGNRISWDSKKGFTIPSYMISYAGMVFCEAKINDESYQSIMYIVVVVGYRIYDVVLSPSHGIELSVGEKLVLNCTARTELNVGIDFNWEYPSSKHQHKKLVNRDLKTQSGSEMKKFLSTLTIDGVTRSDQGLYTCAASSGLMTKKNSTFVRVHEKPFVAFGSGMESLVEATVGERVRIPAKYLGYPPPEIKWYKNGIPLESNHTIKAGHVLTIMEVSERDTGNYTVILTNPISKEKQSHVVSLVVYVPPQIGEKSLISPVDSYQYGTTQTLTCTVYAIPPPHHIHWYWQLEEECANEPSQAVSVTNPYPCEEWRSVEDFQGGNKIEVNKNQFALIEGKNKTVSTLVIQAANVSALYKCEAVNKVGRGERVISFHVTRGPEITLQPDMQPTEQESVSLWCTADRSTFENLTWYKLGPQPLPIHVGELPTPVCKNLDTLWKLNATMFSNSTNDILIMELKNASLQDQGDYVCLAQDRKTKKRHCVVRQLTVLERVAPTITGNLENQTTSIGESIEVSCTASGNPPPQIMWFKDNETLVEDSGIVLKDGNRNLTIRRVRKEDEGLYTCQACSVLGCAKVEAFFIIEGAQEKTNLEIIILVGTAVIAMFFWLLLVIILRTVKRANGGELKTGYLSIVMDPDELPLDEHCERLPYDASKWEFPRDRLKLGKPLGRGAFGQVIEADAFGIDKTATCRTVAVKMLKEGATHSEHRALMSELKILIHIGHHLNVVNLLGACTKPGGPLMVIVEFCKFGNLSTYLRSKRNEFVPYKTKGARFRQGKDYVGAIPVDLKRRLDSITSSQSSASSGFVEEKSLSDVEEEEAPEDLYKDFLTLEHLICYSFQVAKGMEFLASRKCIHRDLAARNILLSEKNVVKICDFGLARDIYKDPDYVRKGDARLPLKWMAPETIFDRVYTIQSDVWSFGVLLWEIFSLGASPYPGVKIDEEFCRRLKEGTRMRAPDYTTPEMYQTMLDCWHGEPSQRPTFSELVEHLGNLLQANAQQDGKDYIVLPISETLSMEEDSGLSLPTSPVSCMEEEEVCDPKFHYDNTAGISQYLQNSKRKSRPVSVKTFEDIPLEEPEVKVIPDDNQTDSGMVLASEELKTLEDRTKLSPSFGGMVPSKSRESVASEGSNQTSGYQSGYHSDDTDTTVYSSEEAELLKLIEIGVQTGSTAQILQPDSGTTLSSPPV
protocol.notes: VEGFR2 Cellular Assay
Type: cell-based
Give bare numbers, in nM.

Below are 7 compounds. Give each one its IC50.
1. Cc1cccc(NC(=O)c2cccc(N3CCc4c(cnc5ccccc45)C3)c2)c1
2. CCc1cccc(NC(=O)c2cccc(N3CCc4c(cnc5ccccc45)C3)c2)c1
3. COc1cc2ncc3c(c2cc1OC)CCN(c1cccc(C(=O)Nc2ccc(C(C)C)cc2)c1)C3
4. CC(C)c1cccc(NC(=O)c2cccc(N3CCc4c(cnc5ccccc45)C3)c2)c1
5. CC(C)c1ccc(NC(=O)c2cccc(N3CCc4c(cnc5ccccc45)C3)c2)cc1
6. O=C(Nc1cccc(C(F)(F)F)c1)c1cccc(N2CCc3c(cnc4ccccc34)C2)c1
7. CCc1cccc(NC(=O)c2cccc(N3CCc4c(cnc5ccsc45)C3)c2)c1

(A)
1. 23
2. 19
3. 20
4. 30
5. 71
6. 46
7. 12
